Hey, just so you know, these numbers are from ChEMBL document CHEMBL1201862.

Hi! I'm sharing some GI50 results obtained with HCT-15.
Give just the number in µM; leave the unit off.

// known answers, use as guide
> print(dat)
                                   compound  recorded.result
1  COC1=C(Br)C(O)C2(C=C1Br)CC(C(=O)NCCCCNC(=O)C1=NOC3(C=C(Br)C(OC)=C(Br)C3O)C1)=NO2 (centres undefined)               49
2  CC(c1ccc2c(c1)CCC1C2CC2OC23CC=CC(=O)[C@]13C)C1C[C@]2(C)O[C@]2(C)[C@H](O)O1 (some centres undefined)             82.4
3     O=c1c(NO)c([N+](=O)[O-])cnn1-c1ccccc1             4.78
4  Cc1cc(S(=O)(=O)Nc2n[nH]c(-c3ccc(Cl)cn3)n2)c(S)cc1Cl             70.1

I have this compound here, C=CC1(O)CCCC=C1COCc1ccccc1 (centres undefined) , and I need its recorded GI50.
65.8

---

Catalogue of compounds with associated GI50
- Tested on: Hs-578T
- Test Protocol: NCI tumour cell line growth inhibition, 48 h
Active and inactive are the calls of the source. Rule as the data show it: active = GI50 up to about 1.1 µM and inactive = higher.

// known answers, use as guide
> print(dat)
                                   compound     recorded.result
1  O=C(c1cccc(F)c1F)N1CCc2c([nH]c3ccccc23)C1c1ccc2c(c1)OCO2 (stereo not drawn)  23.8 µM (inactive)
2            C=CCc1cccc2cc(C(N)=O)c(=N)oc12  > 10 µM (inactive)

I have this compound here, N#CC12C(=O)N=C(N)C1(C#N)C(c1ccco1)NC1=C2CCCC1 (stereo not drawn) , and I need its recorded GI50.
> 100 µM (inactive)

Here is the next compound: CCOc1ccc(NCC2CC/C(=C\C=C\c3ccccc3)C2=O)cc1 (stereo not drawn)
29 µM (inactive)

Here is the next compound: CC(C(=O)N1c2ccccc2Sc2ccccc21)N1c2ccccc2Sc2ccccc21 (stereo not drawn)
> 100 µM (inactive)

---

- System: SF-295
- Test Protocol: NCI tumour cell line growth inhibition, 48 h
Activity calls are given as the source filed them. No stated cut-off is given here; in the data, active = GI50 up to about 1.1 µM and inactive = higher.
Allowed answers: YES (active), NO (inactive)

Worked examples follow.
> print(dat)
                                   compound  class.assignment
1  O=C1CCC[C@@H]2NC[C@@H](c3ccc4c(c3)OCO4)[C@H]12                NO
2  CC(C)(C)[Si](OC1CCOC1=O)(c1ccccc1)c1ccccc1 (stereo not drawn)                NO
3  CC(=O)OC(C)(C)C1CCC(C)(C(O)COc2ccc(CCNC(=O)c3ccccc3)cc2)O1 (stereo not drawn)                NO
4  CCNC(C)(C)C(SS)c1ccc(Br)cc1 (stereo not drawn)                NO
5    CN(C)/N=N/c1nc2c(c(=O)n(C)c(=O)n2C)n1C                NO

Which outcome did this test record for the compound CC1(C)OC(CCC#N)CN1C(=O)OCc1ccccc1 (stereo not drawn) ?
NO

Here is the next compound: NS(=O)(=O)c1cc(Cl)c(NC(=S)NC(=O)Nc2ccc(Cl)c(Cl)c2)c(Cl)c1
NO

Here is the next compound: CCOP(=Nc1ccc(N(C)C)cc1)(OCC)OCC
NO

Here is the next compound: c1cc2nnc1SCCCSc1ccc(nn1)SCCCS2
NO

Here is the next compound: CC(=O)NNc1nc(C)c(C(=O)/C=C/c2ccc(Cl)c(Cl)c2)s1
NO

Here is the next compound: NC(=O)C[S+]([O-])CC(N)C(=O)O (stereo not drawn)
NO

Here is the next compound: O=CNNC(=O)Nc1ccc(Cl)cc1
NO
